Tested on: Candida albicans
protocol: In vitro inhibition of Candida albicans G418-sensitive proliferation
Assay type: functional, organism-based
Would you kindly list IC50 for each of these molecules?
Write down the numeric answer in µM and omit the unit.

Documented IC50 of COc1ccc(COc2ccc(/C=C3\SC(=S)N(CC(=O)O)C3=O)cc2OCc2ccccc2)cc1 : 3

Record O=C(O)CN1C(=O)/C(=C/c2ccc(OCc3ccc(C(F)(F)F)cc3)c(OCc3ccccc3)c2)SC1=S , field IC50: 4

# molecule C[C@H](COc1ccc(/C=C2\SC(=S)N(CC(=O)O)C2=O)cc1O[C@H](c1ccccc1)C(F)(F)F)c1ccccc1 ; its IC50 = 0.02
